The reported measurements were obtained from patent US12617785B2.

Assay System: Lats1 (Homo sapiens)
Construct: purchased Carna 01-123
Sequence (O95835 whole entry): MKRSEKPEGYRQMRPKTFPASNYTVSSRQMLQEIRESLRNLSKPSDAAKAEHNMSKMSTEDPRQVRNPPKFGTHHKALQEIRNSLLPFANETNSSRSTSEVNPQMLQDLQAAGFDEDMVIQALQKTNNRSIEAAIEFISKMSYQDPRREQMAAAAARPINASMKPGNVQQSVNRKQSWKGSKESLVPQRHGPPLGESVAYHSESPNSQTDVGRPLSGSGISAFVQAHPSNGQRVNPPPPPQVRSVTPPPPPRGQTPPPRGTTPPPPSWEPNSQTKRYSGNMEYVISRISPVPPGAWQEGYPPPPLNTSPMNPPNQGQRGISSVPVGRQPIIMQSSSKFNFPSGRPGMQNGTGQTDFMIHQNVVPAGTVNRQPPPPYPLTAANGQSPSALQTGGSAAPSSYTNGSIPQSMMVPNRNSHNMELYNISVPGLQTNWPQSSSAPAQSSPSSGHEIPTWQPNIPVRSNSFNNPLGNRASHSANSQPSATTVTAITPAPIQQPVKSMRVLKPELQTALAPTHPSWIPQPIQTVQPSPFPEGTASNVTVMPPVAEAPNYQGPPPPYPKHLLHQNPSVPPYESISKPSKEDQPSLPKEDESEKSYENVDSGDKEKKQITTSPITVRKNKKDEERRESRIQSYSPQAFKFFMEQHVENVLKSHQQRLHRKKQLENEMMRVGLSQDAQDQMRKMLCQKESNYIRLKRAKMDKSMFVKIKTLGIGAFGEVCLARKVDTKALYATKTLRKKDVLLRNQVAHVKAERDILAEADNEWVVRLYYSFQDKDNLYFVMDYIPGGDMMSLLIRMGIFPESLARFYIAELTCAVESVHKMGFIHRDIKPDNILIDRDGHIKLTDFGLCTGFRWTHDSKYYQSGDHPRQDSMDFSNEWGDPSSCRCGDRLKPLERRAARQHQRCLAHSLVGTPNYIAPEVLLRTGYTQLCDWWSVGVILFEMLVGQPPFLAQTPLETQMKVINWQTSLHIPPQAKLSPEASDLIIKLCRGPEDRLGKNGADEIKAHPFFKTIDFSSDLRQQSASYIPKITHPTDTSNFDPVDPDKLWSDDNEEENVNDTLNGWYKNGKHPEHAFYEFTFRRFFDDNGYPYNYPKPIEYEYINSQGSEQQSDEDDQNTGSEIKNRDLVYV
Measurement Description: In vitro kinase assay (HTRF KinEASE-STK S1) Lats1, 2 mM ATP
Type: biochemical
pIC50: −log10 of the molar value. Structures can show the parent of a compound that is named as a salt.
Endpoint: pIC50

INSERT INTO measurements (compound, endpoint, measured_value) VALUES
  ('CC(C)c1cs/c(=N\C(=O)c2c[nH]c3ncccc23)n1Cc1ccccc1', 'pIC50', 6.77),
  ('O=C(/N=c1\sccn1-c1ccccc1Br)c1c[nH]c2ncccc12', 'pIC50', 7.69),
  ('O=C(/N=c1\scc(CO)n1Cc1ccccc1)c1c[nH]c2ncccc12', 'pIC50', 9.70),
  ('O=C(/N=c1\sccn1Cc1cccnc1)c1c[nH]c2ncccc12', 'pIC50', 5.96),
  ('Cc1cs/c(=N\C(=O)c2c[nH]c3ncccc23)n1C1CCCCC1', 'pIC50', 9.70),
  ('O=C(/N=c1\scc(C(F)(F)F)n1Cc1ccccc1)c1c[nH]c2ncccc12', 'pIC50', 6.75),
  ('O=C(/N=c1\sccn1-c1cccnc1)c1c[nH]c2ncccc12', 'pIC50', 5.42),
  ('CN(C)CCNC(=O)c1cs/c(=N\C(=O)c2c[nH]c3ncccc23)n1Cc1ccccc1', 'pIC50', 7.09),
  ('Cc1ccccc1-n1ccs/c1=N\C(=O)c1c[nH]c2ncccc12', 'pIC50', 9.52),
  ('CCOC(=O)c1cs/c(=N\C(=O)c2c[nH]c3ncccc23)n1Cc1ccccc1', 'pIC50', 7.66),
  ('O=C(/N=c1\sccn1C1CCNCC1)c1c[nH]c2ncccc12 [T75, hydrochloride]', 'pIC50', 7.03),
  ('O=C(/N=c1\sccn1Cc1ccncc1)c1c[nH]c2ncccc12', 'pIC50', 5.31),
  ('NC(=O)c1cccc(-n2ccs/c2=N\C(=O)c2c[nH]c3ncccc23)c1', 'pIC50', 6.38),
  ('O=C(/N=c1\sccn1C1CCOCC1)c1c[nH]c2ncccc12', 'pIC50', 5.66),
  ('O=C(/N=c1\sccn1-c1ccc(CO)cc1)c1c[nH]c2ncccc12', 'pIC50', 7.22),
  ('CC(c1ccccc1)n1ccs/c1=N\C(=O)c1c[nH]c2ncccc12 (stereo not shown)', 'pIC50', 7.23),
  ('O=C(/N=c1\sccn1-c1ccccn1)c1c[nH]c2ncccc12', 'pIC50', 6.55),
  ('CN(C)C(=O)c1cs/c(=N\C(=O)c2c[nH]c3ncccc23)n1-c1ccccc1Cl', 'pIC50', 7.70),
  ('NCc1ccccc1-n1ccs/c1=N\C(=O)c1c[nH]c2ncccc12', 'pIC50', 7.37),
  ('O=C(O)CCn1ccs/c1=N\C(=O)c1c[nH]c2ncccc12', 'pIC50', 6.22),
  ('COc1ccc(-n2ccs/c2=N\C(=O)c2c[nH]c3ncccc23)cc1', 'pIC50', 6.95),
  ('O=C(/N=c1\sccn1C1CCCCC1)c1c[nH]c2ncccc12', 'pIC50', 9.30);
